In this section, each of the compounds is paired with its reported growth inhibition.
method description: NCI Yeast Anticancer Drug Screen. Data for the rad50 strain (AID 155);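 also: 0% = growth of vehicle-only cultures of the same strain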
test parameters: S. cerevisiae rad50 strain growth inhibition; at 50.0 µM; active compounds read high
The panel holds about 79,000 compounds, 15% with a hit somewhere; the sample as a whole holds those more often.
Lab book: enter the figure in %, no units written.

[
  {
    "compound": "Cn1c(=O)c2[nH]c(=O)n(C)c2n(C)c1=O",
    "recorded metric": "growth inhibition",
    "unit of measurement": "%",
    "endpoint result": -5.35
  },
  {
    "compound": "O=C1C[CH]([Ge](=[O])[O][Ge](=[O])[CH]2CC(=O)NC(=O)N2)NC(=O)N1 (stereo unspecified)",
    "recorded metric": "growth inhibition",
    "unit of measurement": "%",
    "endpoint result": 43.9
  },
  {
    "compound": "Cn1cnc([N+](=O)[O-])c1Sc1nc(N)nc2c1ncn2C1OC(CO)C(O)C1O (stereo unspecified)",
    "recorded metric": "growth inhibition",
    "unit of measurement": "%",
    "endpoint result": -9.3
  },
  {
    "compound": "COc1cc2c(cc1OC)C(NC(C)C)CCCC2 (stereo unspecified)",
    "recorded metric": "growth inhibition",
    "unit of measurement": "%",
    "endpoint result": -7.6
  },
  {
    "compound": "O=C(N/N=C(\\C1=Nc2ccc(Cl)cc2NC1O)C(O)/C=C/c1ccccc1)c1ccncc1 (stereo unspecified)",
    "recorded metric": "growth inhibition",
    "unit of measurement": "%",
    "endpoint result": 17.6
  }
]

Next item in the queue.
Data request, read-out growth inhibition, for O=C(OC1OC(COCc2ccccc2)C(OCc2ccccc2)C1OCc1ccccc1)c1ccc([N+](=O)[O-])cc1 (stereo unspecified)
25.2
